Biological target: Mfsd2a (Mus musculus)
Sequence (Q9DA75 whole entry): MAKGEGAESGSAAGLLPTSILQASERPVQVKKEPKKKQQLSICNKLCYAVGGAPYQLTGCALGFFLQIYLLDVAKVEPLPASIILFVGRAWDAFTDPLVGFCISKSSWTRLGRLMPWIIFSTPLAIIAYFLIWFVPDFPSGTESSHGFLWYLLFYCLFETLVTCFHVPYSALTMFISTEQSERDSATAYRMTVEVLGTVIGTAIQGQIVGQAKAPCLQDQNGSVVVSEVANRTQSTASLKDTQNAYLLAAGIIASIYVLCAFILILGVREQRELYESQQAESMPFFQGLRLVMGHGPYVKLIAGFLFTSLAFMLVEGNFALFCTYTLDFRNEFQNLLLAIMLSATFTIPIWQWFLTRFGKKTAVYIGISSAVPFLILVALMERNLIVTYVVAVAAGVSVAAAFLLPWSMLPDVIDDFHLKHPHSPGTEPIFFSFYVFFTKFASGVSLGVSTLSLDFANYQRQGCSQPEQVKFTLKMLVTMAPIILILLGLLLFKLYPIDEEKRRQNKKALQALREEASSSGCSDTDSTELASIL
Test: Competition transport assay with LPC-[3H]palmitate as ligand
Format: cell-based
Set-up: expressed in transfected cells; host or cells: HEK293
Settings: 25 μM LPC-[3H]palmitate, 250 μM competitor, 15 mins
Method: Briefly, 24 h post transfection of HEK293 cells with pcDNA3.1Mfsd2a (WT), pcDNA3.1Mfsd2aD92A (D92A), pcDNA3.1Mfsd2aD96A, or pcDNA3.1 (mock) plasmids were washed once with serum-free DMEM medium before addition of a mixture of 25 μM radiolabeled LPC-palmitate and 250 μM cold competitors, which were dissolved in 12% BSA. Total BSA concentration was kept constant in samples with or without cold competitors. Assays were performed at 37° C. for 30 mins. […]
observed.property: competition of foscholines with LPC-[3H]palmitate

-- ask Recorded competition of foscholines with LPC-[3H]palmitate for CCCCCCCCOP(=O)([O-])OCC[N+](C)(C)C , please?
-- reply did not compete

-- ask Quick one: CCCCCCCCCCOP(=O)([O-])OCC[N+](C)(C)C
-- reply did not compete

-- ask Quick one: CCCCCCCCCCCCOP(=O)([O-])OCC[N+](C)(C)C
-- reply did not compete

The measurements presented in this section are drawn from patent US10175256B2.
